assay: Neutral red uptake (NRU) assay, normal cells; conditions: human, human skin fibroblasts (CCD25Sk)
Recorded IC50 at 72 h by entry

O=c1c(O)c(-c2cc(O)c(O)c(O)c2)oc2cc(O)cc(O)c12 ... > 200 µM
O=C(O)C1OC(Oc2cc(O)c3c(=O)cc(-c4ccc(O)c(O)c4)oc3c2)C(O)C(O)C1O (stereo not drawn) [Compound 8, luteolin 7-O-glucuronide] ... > 200 µM

Supply measured IC50 at 72 h of O=c1cc(-c2ccc(O)cc2)oc2c([C@@H]3O[C@H](CO)[C@@H](O)[C@H](O)[C@H]3O)c(O)cc(O)c12 [Compound 2, apigenin 8-C-glucoside] in your reply. > 200 µM

----------
Recorded IC50 at 72 h by entry
experiment: MTT cell viability assay, normal cells; settings: human, human skin fibroblasts (CCD25Sk);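 further: fibroblasts served as non-cancer comparison line for selectivity versus melanoma cells, MTT reduction read as absorbance at 570 nm after 2 h dye exposure, compounds in ≤0.1% DMSO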
Just the number in µM, nothing appended.

O=c1c(O)c(-c2ccc(O)c(O)c2)oc2cc(O)cc(O)c12 ... 36.1

Could you now look at the following molecule, please?
Supply measured IC50 at 72 h of O=c1cc(-c2ccccc2)oc2c(O)c(O)ccc12 [Compound 16, 7,8-dihydroxyflavone] in your reply. 93.3

----------
experiment: Neutral red uptake (NRU) assay, normal cells; conditions: human, human skin fibroblasts (CCD25Sk)
Recorded IC50 at 72 h by entry
Just the number in µM, nothing appended.

Some molecules with recorded IC50 at 72 h:
O=c1cc(-c2ccc(O)c(O)c2)oc2cc(O)cc(O)c12 ... 21.4
O=c1cc(-c2ccccc2)oc2c(O)c(O)ccc12 [Compound 16, 7,8-dihydroxyflavone] ... 72.9
O=c1cc(-c2ccc(O)cc2)oc2cc(O)cc(O)c12 ... 58

Could you now look at the following molecule, please?
Supply measured IC50 at 72 h of `O=c1cc(-c2ccccc2)oc2cc(O)cc(O)c12` in your reply. 76.3

----------
Recorded pIC50 by entry
system: C32 melanoma cells; assay: Neutral red uptake (NRU) assay, C32; settings: Homo sapiens, C32, 24 h, read-out: IC50, cytotoxic activity, NRU assay
pIC50: −log10 of the molar value.

COc1cc(-c2oc3cc(O)cc(O)c3c(=O)c2O)ccc1O ... < 3.70
O=c1c(-c2ccc(O)cc2)coc2cc(O)cc(O)c12 ... 3.70 to 4.00

Supply measured pIC50 of `COc1cc(-c2cc(=O)c3c(O)cc(O)cc3o2)cc(OC)c1O` in your reply. < 3.70

----------
tested on: C32 melanoma cells; assay: Neutral red uptake (NRU) assay, C32; details: Homo sapiens, C32, 48 h, read-out: IC50, cytotoxic activity, NRU assay, C32, 48 h
Recorded IC50 by entry

Some compounds with recorded IC50:
O=c1c(O)c(-c2ccc(O)c(O)c2)oc2cc(O)cc(O)c12 ... 58 µM
COc1ccc(-c2oc3c(CC=C(C)C)c(O[C@@H]4O[C@H](CO)[C@@H](O)[C@H](O)[C@H]4O)cc(O)c3c(=O)c2O[C@@H]2O[C@@H](C)[C@H](O)[C@@H](O)[C@H]2O)cc1 ... > 200 µM

Supply measured IC50 of COc1ccc(C2CC(=O)c3c(O)cc(OC4OC(CO)C(O)C(O)C4OC4OC(C)C(O)C(O)C4O)cc3O2)cc1O (centres unmarked) [Compound 35, hesperetin 7-O-neohesperidoside] in your reply. > 200 µM

Supply measured IC50 of O=C(O)C1OC(Oc2c(-c3ccc(O)c(O)c3)oc3cc(O)cc(O)c3c2=O)C(O)C(O)C1O (centres unmarked) [Compound 27, quercetin 3-O-glucuronide] in your reply. > 200 µM

Supply measured IC50 of C[C@@H]1O[C@@H](OC[C@H]2O[C@@H](Oc3c(-c4ccc(O)c(O)c4)oc4cc(O)cc(O)c4c3=O)[C@H](O)[C@@H](O)[C@@H]2O)[C@H](O)[C@H](O)[C@H]1O [Compound 28, quercetin 3-O-rutinoside] in your reply. > 200 µM
